All figures here come from patent US20260242419A1.

Biological target: Recombinant human IL-1β (BioLegend 579404) (human, UniProt P01584 117-269)
Assay: cell-based or functional assay
Starred links: 1 amine or outer side, 2 acyl side, 3 side chain; linkers in the order of their positions; H or OH if unused. Non-standard residues stand in square brackets, D forms with d. No end group written: not given here. dProc3CH24Pal = (2R,3S)-3-(4-pyridylmethyl)pyrrolidine-2-carboxylic acid, O=C([C@H]1[C@@H](Cc2ccncc2)CCN1[*:1])[*:2]; ThrOMe = (2S,3R)-2-amino-3-methoxy-butanoic acid, CO[C@H](C)[C@H](N[*:1])C(=O)[*:2]; dPro(3S-(4-Br-benzyl)) = O=C(O)[C@@H]1NCC[C@@H]1Cc1ccc(Br)cc1; Trp(βS-Me,4-F) = C[C@@H](c1c[nH]c2cccc(F)c12)[C@H](N)C(=O)O; Bip(4'-COOH) = N[C@@H](Cc1ccc(-c2ccc(C(=O)O)cc2)cc1)C(=O)O; dPro(4R-Bzl(4-F)) = O=C(O)[C@H]1C[C@@H](Cc2ccc(F)cc2)CN1; Ala(pyrimidin-5-yl) = N[C@@H](Cc1cncnc1)C(=O)O; Phe(4-COOH) = N[C@@H](Cc1ccc(C(=O)O)cc1)C(=O)O; dαMeDab = C[C@](CCN[*:3])(N[*:1])C(=O)[*:2]; Pro(cis-4-F) = O=C(O)[C@@H]1C[C@H](F)CN1; Dap(CONH2) = NC(=O)NC[C@H](N)C(=O)O; hTyr = N[C@@H](CCc1ccc(O)cc1)C(=O)O; d(αMeD) = C[C@@](N)(CC(=O)O)C(=O)O; 4Pal = N[C@@H](Cc1ccncc1)C(=O)O; Dab = NCC[C@H](N)C(=O)O; Dap = NC[C@H](N)C(=O)O; Aib = CC(C)(N)C(=O)O
propertyMeasured: MRC5 IC50 (nM)
Value expressed in nM; do not type the unit.

[Bip(4'-COOH)][4Pal][Phe(4-COOH)]G[Pro(cis-4-F)][Trp(βS-Me,4-F)][Aib]SW[d(αMeD)][ThrOMe]Q[Dab]G[dProc3CH24Pal] (lactam (positions not given here); also: macrolactam, ring places not given here) [SEQ ID NO: 227] yielded MRC5 IC50 of 0.014

response.value for cyclo([Bip(4'-COOH)][4Pal][Phe(4-COOH)]G[Pro(cis-4-F)][Trp(βS-Me,4-F)][Aib]EW[Aib][Ala(pyrimidin-5-yl)]Q[Dap]G[dPro(3S-(4-Br-benzyl))]) (ring closure inferred) [SEQ ID NO: 150] (field: MRC5 IC50) = 0.019

MRC5 IC50 reported for this binder [Bip(4'-COOH)][4Pal][Phe(4-COOH)]G[Pro(cis-4-F)][Trp(βS-Me,4-F)][Aib]SW[d(αMeD)][Ala(pyrimidin-5-yl)]Q[Dap(CONH2)]G[dProc3CH24Pal] (lactam (positions not given here); also: macrolactam, ring places not given here) [SEQ ID NO: 230] : 0.022

response.value for cyclo([Bip(4'-COOH)][4Pal][Phe(4-COOH)]G[Pro(cis-4-F)][Trp(βS-Me,4-F)][Aib]SW[d(αMeD)][hTyr]Q[Dab]G[dProc3CH24Pal]) (ring closure inferred; not fully specified (bridges); printed as Bip4CO2H-4Pal-Phe4COOH-G-Proc4F-SbMeW4F-Aib-S-W-daMeD-hY-Q-Dab-G-dProc3CH24Pal, cyclic (macrolactam)) [SEQ ID NO: 219] (field: MRC5 IC50) = 0.018

Memo: cyclo([Bip(4'-COOH)][4Pal][Phe(4-COOH)]G[Pro(cis-4-F)][Trp(βS-Me,4-F)][Aib]SW[dαMeDab][Ala(pyrimidin-5-yl)]Q[Dab]G[dPro(4R-Bzl(4-F))]) (ring closure inferred; not fully specified (bridges); printed as Bip4CO2H-4Pal-Phe4COOH-G-Proc4F-SbMeW4F-Aib-S-W-daMeDab-PyrimAla-Q-Dab-G-dProc4Bn4F) [SEQ ID NO: 142] , reported MRC5 IC50: 0.019
